Where do the numbers come from? From paper PMC6982974.

testSystem: human PLK1-PBD protein (Homo sapiens, UniProt P53350)
Construct: a C-terminal polo-box domain (PBD)
Sequence (P53350 326-603 limits assumed): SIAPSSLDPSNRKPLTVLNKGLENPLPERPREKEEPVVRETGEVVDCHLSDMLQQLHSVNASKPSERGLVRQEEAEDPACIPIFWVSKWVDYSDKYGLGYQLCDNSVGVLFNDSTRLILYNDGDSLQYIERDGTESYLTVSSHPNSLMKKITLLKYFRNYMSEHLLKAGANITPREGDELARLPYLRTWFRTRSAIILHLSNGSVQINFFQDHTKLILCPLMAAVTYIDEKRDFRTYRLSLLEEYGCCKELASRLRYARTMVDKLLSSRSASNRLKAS
assayExplanation: Competitive fluorescence polarization (FP) assay, PLK1-PBD inhibition
Type: binding
setupConditions: probe FITC-GPMQSpTPLNG-OH, room temperature 40 min, performed in triplicate, read-out: IC50
Non-standard residues stand in square brackets, D forms with d. Residues, ends and D or L forms follow the SMILES beside them. pT = C[C@@H](OP(=O)(O)O)[C@H](N)C(=O)O
Parameter pIC50: see the listing below.
Please express pIC50 as -log10 of the molar concentration.

molecule: CC(C)C[C@H](NC(=O)[C@@H]1CCCN1C(=O)[C@@H]1CCCN1C(=O)[C@H](C)NC(=O)[C@@H](N)Cc1c[nH]c2ccccc12)C(=O)N[C@@H](Cc1c[nH]cn1)C(=O)N[C@@H](CO)C(=O)N[C@H](C(=O)N[C@@H](C)C(=O)N[C@@H](CCCCN)C(=O)O)[C@@H](C)OP(=O)(O)O [Peptide 6] (H-WAPPLHS[pT]AK-OH)
pIC50: 6.46
--
molecule: CC(C)C[C@H](NC(=O)[C@@H]1CCCN1C(=O)[C@@H]1CCCN1C(=O)[C@H](CCC(N)=O)NC(=O)[C@@H](N)Cc1c[nH]cn1)C(=O)N[C@@H](Cc1c[nH]cn1)C(=O)N[C@@H](CO)C(=O)N[C@H](C(=O)N[C@@H](C)C(=O)O)[C@@H](C)OP(=O)(O)O [Peptide 9] (H-HQPPLHS[pT]A-OH)
pIC50: 6.14
--
molecule: CSCC[C@H](NC(=O)[C@@H]1CCCN1C(=O)CNC(=O)[C@H](C)NC(=O)[C@@H](N)CCSC)C(=O)N[C@@H](CCC(N)=O)C(=O)N[C@@H](CO)C(=O)N[C@H](C(=O)N1CCC[C@H]1C(=O)N[C@@H](CC(C)C)C(=O)N[C@@H](CC(N)=O)C(=O)NCC(=O)N[C@@H](C)C(=O)N[C@@H](CCCCN)C(=O)N[C@@H](CCCCN)C(=O)O)[C@@H](C)OP(=O)(O)O [Polo b oxtide, reference compound] (H-MAGPMQS[pT]PLNGAKK-OH)
pIC50: 5.10

Turning now to a further record.
Which pIC50 value belongs to CC[C@H](C)[C@H](NC(=O)[C@H](C)NC(=O)[C@@H](NC(=O)[C@H](CO)NC(=O)[C@H](Cc1c[nH]cn1)NC(=O)[C@H](CC(C)C)NC(=O)[C@@H]1CCCN1C(=O)[C@@H]1CCCN1C(=O)[C@H](CC(=O)O)NC(=O)[C@@H](N)Cc1c[nH]c2ccccc12)[C@@H](C)OP(=O)(O)O)C(=O)O [Peptide 2] (H-WDPPLHS[pT]AI-OH) ?
6.72

###

Parameter pIC50: see the listing below.
testSystem: human PLK1-PBD protein (Homo sapiens)
Construct: a C-terminal polo-box domain (PBD)
assayExplanation: Competitive fluorescence polarization (FP) assay, PLK1-PBD inhibition
Type: binding
setupConditions: probe FITC-GPMQSpTPLNG-OH, room temperature 40 min, performed in triplicate, read-out: IC50
Non-standard residues stand in square brackets, D forms with d. Residues, ends and D or L forms follow the SMILES beside them. pT = C[C@@H](OP(=O)(O)O)[C@H](N)C(=O)O
Please express pIC50 as -log10 of the molar concentration.

molecule: CC[C@H](C)[C@H](NC(=O)[C@H](C)NC(=O)[C@@H](NC(=O)[C@H](CO)NC(=O)[C@H](Cc1c[nH]cn1)NC(=O)[C@H](CC(C)C)NC(=O)[C@@H]1CCCN1C(=O)[C@@H]1CCCN1C(=O)[C@H](CCC(=O)O)NC(=O)[C@@H](N)Cc1ccc(O)cc1)[C@@H](C)OP(=O)(O)O)C(=O)NCC(=O)O [Peptide 1] (H-YEPPLHS[pT]AIG-OH)
valueObserved: 6.49

molecule: CC(C)C[C@H](NC(=O)[C@@H]1CCCN1C(=O)[C@@H]1CCCN1C(=O)[C@H](CCCCN)NC(=O)[C@@H](N)Cc1c[nH]c2ccccc12)C(=O)N[C@@H](Cc1c[nH]cn1)C(=O)N[C@@H](CO)C(=O)N[C@H](C(=O)N[C@@H](C)C(=O)NCC(=O)O)[C@@H](C)OP(=O)(O)O [Peptide 7] (H-WKPPLHS[pT]AG-OH)
valueObserved: 6.38

molecule: CC[C@H](C)[C@H](NC(=O)[C@H](C)NC(=O)[C@@H](NC(=O)[C@H](CO)NC(=O)[C@H](Cc1c[nH]cn1)NC(=O)[C@H](CC(C)C)NC(=O)[C@@H]1CCCN1C(=O)[C@@H]1CCCN1C(=O)[C@H](CCC(=O)O)NC(=O)[C@@H](N)Cc1ccccc1)[C@@H](C)OP(=O)(O)O)C(=O)O [Peptide 3] (H-FEPPLHS[pT]AI-OH)
valueObserved: 6.54

molecule: CC(C)C[C@H](NC(=O)[C@@H]1CCCN1C(=O)[C@@H]1CCCN1C(=O)[C@H](CCCCN)NC(=O)[C@@H](N)Cc1c[nH]cn1)C(=O)N[C@@H](Cc1c[nH]cn1)C(=O)N[C@@H](CO)C(=O)N[C@H](C(=O)N[C@@H](C)C(=O)O)[C@@H](C)OP(=O)(O)O [Peptide 8] (H-HKPPLHS[pT]A-OH)
valueObserved: 6.21

Turning now to a further record.
Which pIC50 value belongs to CC(C)C[C@H](NC(=O)[C@@H]1CCCN1C(=O)[C@@H]1CCCN1C(=O)[C@H](CCC(=O)O)NC(=O)[C@@H](N)Cc1ccccc1)C(=O)N[C@@H](Cc1c[nH]cn1)C(=O)N[C@@H](CO)C(=O)N[C@H](C(=O)N[C@@H](C)C(=O)NCC(=O)O)[C@@H](C)OP(=O)(O)O [Peptide 4] (H-FEPPLHS[pT]AG-OH) ?
6.80
